# TEST: protein stability index of a GFP-peptide fusion (yeast GPS) (PSI 1-4); higher = more stable; sorted into four equal gates, so the index is relative within each strain
# CONDITION SET: ubr1∆

| ENTRY SEQUENCE | protein stability index |
| --- | --- |
| ADVHFLDCDGGFIDASC [RRP45] | 2.9 |
| LLNTDHTLDPSLLESGS [RPO21] | 3.17 |
| QNDFLFSVGESLSVVAG [ECM29] | 2.71 |
| DIQAMCTEAGLLALRER [RPT2] | 3.26 |
| EQSLEVFIFPTSNWEIY [SRB8] | 2.52 |
| EENWDDVEVDDDFTNEL [SEM1] | 3.3 |
| EHKTPELISFKERTKSL [YIL149C/MLP2] | 3.22 |
| AESMCQELELPGEFVTA [SNF5] | 2.46 |

----------
In this section we review reported protein stability index values for a set of sequences.
# TEST: protein stability index of a GFP-peptide fusion (yeast GPS) (PSI 1-4); higher = more stable; sorted into four equal gates, so the index is relative within each strain
# CONDITION SET: san1∆
RECORDED METRIC: protein stability index

| ENTRY SEQUENCE | RECORDED METRIC | REPORTED |
| --- | --- | --- |
| NQFKRIDTLLYLMTYPQ [RET1] | protein stability index | 1.48 |
| KLEAEEIPSEDQNEFLL [FAS2] | protein stability index | 2.25 |
| KRKVLELKKKRKIKRLE [SRP72] | protein stability index | 3.38 |
| IHGELKTYKEGINKNEE [SMC1] | protein stability index | 2.87 |
| GAAANNNDQKRQQAYKT [YJL041W/NSP1] | protein stability index | 3.09 |
| SGQKAGLIAARRTGLLR [RPL2A] | protein stability index | 3.15 |
| PNEFEIQLSTVNRQSPL [RGR1] | protein stability index | 2.69 |
| QRIIADLSADKPTSPFI [SRB8] | protein stability index | 2.82 |
| QLASQLVDLKKELAELK [RPL35A] | protein stability index | 3.21 |
| YSPNTLGHPDNYIPGNP [COB] | protein stability index | 2.9 |
| IWPAEDALRRGMLAMAS [MED4] | protein stability index | 3.05 |
| HKVTQKKDIKIGTNDLF [SIR4] | protein stability index | 2.7 |
| DFDGDEMNLHVPQSEET [RPO21] | protein stability index | 2.98 |
| NEVCLEKENRFEIVDRE [SMC4] | protein stability index | 3.1 |
| ENVILGQMAPIGTGAFD [RPO21] | protein stability index | 2.36 |
| TDRITRLFIKPGQKMSL [BRN1] | protein stability index | 2.97 |
| DGLEKAAFNGVTFKDKY [FAS2] | protein stability index | 1.85 |
| QIYTQRAYMRPLGVILT [SCL1] | protein stability index | 1.43 |
| KGLIKVNGSPITLVEPE [RPS16A] | protein stability index | 3.06 |
| EVGNRKHYLEDKLKVYK [SNF5] | protein stability index | 3.11 |
| FLKKVMDTIQDKLINDV [ECM29] | protein stability index | 2.95 |
| KLYDKTENDIKALQSIG [RPT4] | protein stability index | 1.87 |
| NGSEKVLIAQERSAGNI [RPB2] | protein stability index | 3.12 |
| SETDLNDIPLGSGQPDN [SRB8] | protein stability index | 3.06 |
| TAVSFVSAAEDESLIRE [PRP28] | protein stability index | 3.04 |
| SPYAAMLAAQDVAAKCK [RPS14A] | protein stability index | 1.62 |
| LLYLRLKNIYVSADDFV [PRP8] | protein stability index | 1.27 |
| PQENDLESKMSEVGDAF [SMC3] | protein stability index | 3.43 |
| RVVVPQALRVLRLKPGR [RPL16B] | protein stability index | 1.36 |
| LVEVEDEKIEAIKKKEK [SRB7] | protein stability index | 3.05 |
| KQRLDLARQVKLLLLNT [YIL149C/MLP2] | protein stability index | 1.98 |

----------
# TEST: protein stability index of a GFP-peptide fusion (yeast GPS) (PSI 1-4); higher = more stable; sorted into four equal gates, so the index is relative within each strain
# CONDITION SET: doa10∆
Measured protein stability index determines class: LOW: < 2; MID: ≥ 2 and < 3; HIGH: ≥ 3

| ENTRY SEQUENCE | ASSIGNED LABEL |
| --- | --- |
| DDKYGRKFALEKLYIFY [SRP72] | MID |
| EALVQAFAFCIPVYCFS [YCG1] | LOW |
| WKDFTVEIAFLFRAIYL [YCG1] | MID |
| SLHSNSFSLTVSKEQFL [YJL039C/NUP192] | LOW |
| NGGDKELEMIGGTNEDD [YCS4] | HIGH |
| VTKWTNQLTESASHFEQ [YJL041W/NSP1] | MID |
| ALFVFYSPNTLGHPDNY [COB] | LOW |
| HHWLLDKLSGCYAPRPS [RPS4A] | MID |
| PGQKMSLFSHRKHTRGD [BRN1] | HIGH |
| DLLKLVHLSNGYKMIPG [FAS1] | MID |
| GGGHVSQVYAIRQAIAK [RPS16A] | MID |
| DKVDDYTPEEVDKIERE [SMC4] | LOW |
| LSQSSSYLETLTALGKE [MED2] | HIGH |
| WREIIEKVRDYENSISK [IRR1] | MID |
| LLQSSIINKLIHIQSKE [POP3] | MID |
| YTYLYVRMLASPMLYKV [BRR2] | LOW |
| HTGKKLMAQIFFGPTYY [RPB2] | MID |
| EFCDEPSVGVKTMKTFV [RPB5] | HIGH |
| MALKKNTHNKSTKRVTK [POP7] | MID |
| SLAQNDCNSALDQLLVL [RPN5] | MID |
| EQSLEVFIFPTSNWEIY [SRB8] | MID |
| NSQVFGVARIYASFNDT [RPS14B] | MID |
| NNNNAPIIIYGTENTER [YOR098C/NUP1] | MID |
| SLAILGMNLLSNLSQNV [SWI1] | MID |
| LYKTFFKRNAVFVGTIF [QCR9] | LOW |
| PGMPNMPGMPNMPGMPK [SRP54] | HIGH |
| VTAEDFKQAKERVMKNK [RPT2] | HIGH |
| LRRVNARYVIATSTKVS [RPL6A] | LOW |
| SIVLLLLSQFGIKVLPE [YML103C/NUP188] | LOW |
| IPLNRLSLDSDVKFPSN [SMC3] | LOW |
| ISKTVRFNVVKVSAAAG [RPS11A] | HIGH |
| IPVIALTDLDSPSEFVD [RPS0A] | MID |
| DVSRVAAVETLYQDMAA [RPL20A] | MID |
| EQSELLKAQITSLKCLV [SNF2] | LOW |
| GVSISVSFNSKQNEQLH [SMC3] | LOW |
| ILDNTENYDDTELRQLF [DSN1] | HIGH |
| QTLYTGDKVVVTIWYRA [SSN3] | LOW |
| ILDNINHNGSALLIEVF [ITC1] | LOW |
| DRYGNRYFWLDHNGVPF [ITC1] | MID |
| NDTISEDILQGIFNLLN [NUT1] | MID |
| NIALVSKLRNNIRSQLL [SRP54] | MID |
| LHDTQIEGKLHMATALQ [RPN10] | MID |
| SVLISIPLDNYDDFIYL [PCI8] | LOW |
| LKAVTVEAGMIALRNGQ [RPT5] | HIGH |
| KIHQQLLFKARLQQQQA [GAL11] | LOW |
| YKLFIWLVVPTIYNLQH [YML031W/NDC1] | LOW |

----------
# TEST: protein stability index of a GFP-peptide fusion (yeast GPS) (PSI 1-4); higher = more stable; sorted into four equal gates, so the index is relative within each strain
# CONDITION SET: ubr1∆
RECORDED METRIC: protein stability index

| ENTRY SEQUENCE | RECORDED METRIC | REPORTED |
| --- | --- | --- |
| SLAQNDCNSALDQLLVL [RPN5] | protein stability index | 2.37 |
| YKVEHPFFARFKLRIQT [RPB11] | protein stability index | 1.31 |
| RSEEEVTKLNVLVDEIK [YIL149C/MLP2] | protein stability index | 3.36 |
| IDEHIDLGIKYDPSIGI [RPL11A] | protein stability index | 2.9 |
| ARDEILPLRLQFNEFIQ [PGD1] | protein stability index | 2.79 |
| TDDADDHINWEHIKQDY [NSL1] | protein stability index | 3.4 |
| SAKEIAKASGCDDESGD [MCD1] | protein stability index | 2.86 |
| ENYEGKQDKTLQKVENQ [YIL149C/MLP2] | protein stability index | 3.21 |
| LYNFLHKYVLTLQLYMV [RGR1] | protein stability index | 1.51 |
| SFHVQKKTCSSCGYPSA [RPL37B] | protein stability index | 2.19 |
| LKNEGIDLDHKRFLILQ [SMC4] | protein stability index | 2.84 |
| VFLSNLVETCLNDLVES [BRR2] | protein stability index | 1.89 |
| YIELLPNADDIRDSIPQ [DIS3] | protein stability index | 2.75 |
| HEVQYQESSSTLSTHST [SIN4] | protein stability index | 2.83 |
| IRTRRAAELLDKRIVIS [DIS3] | protein stability index | 1.84 |
